Every entry's value here was drawn from paper PMC9482650.

Target: TJP2_1, Q9UDY2
Sequence (Q9UDY2 24-128): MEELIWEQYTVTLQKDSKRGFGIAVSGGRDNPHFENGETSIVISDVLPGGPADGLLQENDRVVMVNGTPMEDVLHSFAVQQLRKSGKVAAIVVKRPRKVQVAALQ
Experiment: holdup assay
Design: key: below the threshold = too weak to quantify, mostly under pKd 3.1 to 4
Settings: plain residues with an end cap or a label only (N-terminal biotin on a linker: ado-ado)

BINDER | pKd
IPLDGETEEL [MYOZ1, Q9NP98] | below the threshold
RKPKPSSSCC [RAB9A, P51151] | below the threshold
TKGPRGPTRV [SAPCD1, Q5SSQ6] | 3.9
SKENVQETQI [LRRC4B, Q9NT99] | below the threshold
RRLPGKETMA [GRIK2, Q13002] | below the threshold
EALLQMESVA [CAVIN3, Q969G5] | below the threshold
LRSPRTPSEV [OR10G3, Q8NGC4] | below the threshold
SKSNFGSEPL [KIF17, Q9P2E2] | below the threshold
AKPSRISTVV [IQSEC2, Q5JU85] | 4.46
PDGQCTVTEV [RNF146, Q9NTX7] | below the threshold
